- SYSTEM_NAME: UniProtKB P29597
- Sequence (P29597 whole entry): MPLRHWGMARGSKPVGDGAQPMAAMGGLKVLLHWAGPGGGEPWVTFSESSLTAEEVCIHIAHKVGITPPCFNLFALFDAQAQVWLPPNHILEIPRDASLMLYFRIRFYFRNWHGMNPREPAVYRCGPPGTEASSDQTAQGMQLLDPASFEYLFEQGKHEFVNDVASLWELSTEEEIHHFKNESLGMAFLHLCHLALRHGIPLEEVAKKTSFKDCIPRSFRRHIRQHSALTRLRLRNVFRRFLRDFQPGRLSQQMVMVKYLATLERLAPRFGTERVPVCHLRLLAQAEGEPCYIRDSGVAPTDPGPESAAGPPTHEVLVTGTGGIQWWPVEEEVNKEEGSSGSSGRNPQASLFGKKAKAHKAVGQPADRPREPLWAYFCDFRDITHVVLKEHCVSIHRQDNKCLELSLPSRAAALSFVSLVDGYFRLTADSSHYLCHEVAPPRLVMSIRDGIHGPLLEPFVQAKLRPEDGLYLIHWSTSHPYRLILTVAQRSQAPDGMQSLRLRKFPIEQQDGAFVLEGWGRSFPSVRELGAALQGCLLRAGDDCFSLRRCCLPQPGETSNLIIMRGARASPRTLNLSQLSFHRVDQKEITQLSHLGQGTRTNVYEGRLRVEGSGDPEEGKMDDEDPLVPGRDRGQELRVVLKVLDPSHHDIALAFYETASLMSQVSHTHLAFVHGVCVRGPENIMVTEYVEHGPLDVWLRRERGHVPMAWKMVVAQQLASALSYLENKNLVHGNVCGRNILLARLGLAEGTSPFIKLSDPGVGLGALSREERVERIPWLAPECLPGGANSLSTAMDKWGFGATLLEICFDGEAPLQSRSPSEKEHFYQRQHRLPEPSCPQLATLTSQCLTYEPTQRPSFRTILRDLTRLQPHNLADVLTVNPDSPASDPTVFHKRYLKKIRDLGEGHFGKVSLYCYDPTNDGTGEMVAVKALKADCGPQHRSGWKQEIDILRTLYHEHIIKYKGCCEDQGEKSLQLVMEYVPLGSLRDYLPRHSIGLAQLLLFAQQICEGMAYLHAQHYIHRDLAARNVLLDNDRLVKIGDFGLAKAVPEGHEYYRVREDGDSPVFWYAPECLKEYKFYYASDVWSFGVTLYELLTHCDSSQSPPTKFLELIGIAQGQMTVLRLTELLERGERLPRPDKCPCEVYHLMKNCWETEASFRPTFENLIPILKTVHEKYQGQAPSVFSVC
- MEASUREMENT_DESCRIPTION: JAK assay (KINASE-GLO luminescent kinase assay), TYK2
- Assay type: biochemical
- EXPERIMENTAL_CONTEXT: 10 nM JAK enzyme, 800 nM Abl peptide, room temperature 75 min
PARAMETER_MEASURED: IC50

COMPOUND	IC50
Cc1cnc(Nc2ccc(N3CCN(C(=O)OC(C)(C)C)CC3)cc2)nc1-c1cnn(CC2(CF)CC2)c1	< 100 nM

Asked: Given the entry OCC(O)c1cccc(Nc2ncc(Cl)c(-c3cnn(CC4(CF)CC4)c3)n2)c1 (stereo not shown) , report its measured IC50.
Given back: < 10 nM

Asked: Name the recorded IC50 for "Cc1cnc(Nc2ccc3c(c2)CN(C)C3)nc1-c1cnn(CC2(CF)CC2)c1" .
Given back: < 10 nM

Asked: Which IC50 value is on record for "Cc1cnc(Nc2ccc(C(=O)N(C)C)cc2)nc1-c1cnn(CC2(CF)CC2)c1" ?
Given back: < 100 nM

Asked: I am curious: what IC50 value has been reported for "Cc1cnc(Nc2ccc(CCN(C)C)cc2)nc1-c1cnn(CC2(CF)CC2)c1" ?
Given back: < 100 nM

Asked: Reported IC50, compound COC(=O)c1cc(Nc2ncc(C)c(-c3cnn(CCC#N)c3)n2)ccc1N1CCOCC1 [COC(═O)C1═C(C═CC(═C1)NC2═NC(═C] : ____
Given back: < 10 nM

Asked: Consider the compound N#CCC1(Cn2cc(-c3nc(Nc4ccns4)ncc3C3CC3)cn2)CC1 [N#CCC1(CC1)C[N]2C═C(C═N2)C3═C] and give its measured IC50.
Given back: < 100 nM
